Attribution: patent US11673898B2

target: Menin MLL 4-43 (Homo sapiens); assay: Fluorescence polarization (FP) competition assay of the menin-MLL interaction; assay type: binding; details: fluorescence polarization assay; read-out: Menin MLL 4-43 IC50
Exercise: for every item that follows, state its recorded IC50.

# IC50 lookup, item CCNS(=O)(=O)N1CCN([C@@H](C)Cn2c(C#N)cc3c(C)c(CN4CCC(Nc5ncnc6sc(CC(F)(F)F)cc56)CC4)ccc32)CC1
< 50 nM

Quick one: IC50 of Cc1c(CN2CCC(Nc3ncnc4sc(CC(F)(F)F)cc34)CC2)ccc2c1cc(C#N)n2C[C@H](C)N1CCN(S(C)(=O)=O)CC1 ?
< 50 nM

Entry C=CC(=O)Nc1ccc(C(Cn2c(C#N)cc3c(C)c(CN4CCC(Nc5ncnc6sc(CC(F)(F)F)cc56)CC4)ccc32)OC)cc1 (stereo not shown) : reported IC50 = ?
20 to 1000 nM

Any idea what its IC50 is? The molecule is Cc1c(CN2CCC(Nc3nc(N)nc4sc(CC(F)(F)F)cc34)CC2)ccc2c1cc(C#N)n2C[C@@H](C)N1CCN(S(C)(=O)=O)CC1
50 to 250 nM

###

What IC50 was measured for each of the following?
target: Menin MLL 4-43 (Homo sapiens, UniProt O00255); experiment: Fluorescence polarization (FP) competition assay of the menin-MLL interaction; format: binding; details: fluorescence polarization assay; read-out: Menin MLL 4-43 IC50
Sequence (O00255 whole entry): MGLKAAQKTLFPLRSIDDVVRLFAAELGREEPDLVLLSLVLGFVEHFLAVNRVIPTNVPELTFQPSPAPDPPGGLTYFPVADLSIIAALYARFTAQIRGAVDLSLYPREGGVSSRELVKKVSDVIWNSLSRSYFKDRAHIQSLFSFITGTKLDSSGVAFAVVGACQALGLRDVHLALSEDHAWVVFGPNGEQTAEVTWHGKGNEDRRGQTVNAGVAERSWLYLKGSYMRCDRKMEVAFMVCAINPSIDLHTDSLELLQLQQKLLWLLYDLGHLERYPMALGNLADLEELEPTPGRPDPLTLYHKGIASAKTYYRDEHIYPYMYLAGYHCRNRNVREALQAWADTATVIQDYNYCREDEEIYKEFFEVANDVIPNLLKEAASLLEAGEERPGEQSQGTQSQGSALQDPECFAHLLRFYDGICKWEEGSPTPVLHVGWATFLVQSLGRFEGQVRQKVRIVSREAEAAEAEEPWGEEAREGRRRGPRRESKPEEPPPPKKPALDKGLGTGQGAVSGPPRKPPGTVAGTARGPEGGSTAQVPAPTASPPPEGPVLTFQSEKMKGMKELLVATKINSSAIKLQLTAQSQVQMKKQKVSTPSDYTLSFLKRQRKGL

What reported IC50 corresponds to CC[C@H]1CN(C(C)Cn2c(C#N)cc3c(C)c(CN4CCC(Nc5ncnc6sc(CC(F)(F)F)cc56)CC4)ccc32)CCN1S(C)(=O)=O (stereo partly shown) on Menin MLL 4-43 (Homo sapiens, UniProt O00255)?
0.02 to 1 µM

Please provide the recorded IC50 for Cc1c(CN2CCC(Nc3ncnc4sc(CC(F)(F)F)cc34)CC2)ccc2c1cc(C#N)n2C[C@H](C)N1CCN(S(=O)(=O)C2CCC2)CC1 , tested on Menin MLL 4-43 (Homo sapiens, UniProt O00255).
0.05 to 0.25 µM

Please tell me: IC50 of [2H]C1([2H])N([C@@H](C)Cn2c(C#N)cc3c(C)c(CN4CCC(Nc5ncnc6sc(CC(F)(F)F)cc56)CC4)ccc32)C([2H])([2H])C([2H])([2H])N(S(C)(=O)=O)C1([2H])[2H] , system Menin MLL 4-43 (Homo sapiens, UniProt O00255)?
0.05 to 0.25 µM

Kindly state the measured IC50 obtained for CNc1nc(NC2CCN(Cc3ccc4c(cc(C#N)n4C[C@H](C)N4CCN(C)CC4=O)c3C)CC2)c2cc(CC(F)(F)F)sc2n1 with Menin MLL 4-43 (Homo sapiens, UniProt O00255).
< 0.05 µM

Query IC50 on Menin MLL 4-43 (Homo sapiens, UniProt O00255) for Cc1c(CN2CCC(Nc3nc(N)nc4sc(CC(F)(F)F)cc34)CC2)ccc2c1cc(C#N)n2C[C@H](C)N1CCN(C(C)C)CC1
< 0.05 µM

Give Menin MLL 4-43 (Homo sapiens, UniProt O00255) IC50 for Cc1c(CN2CCC(Nc3nc(N)nc4sc(CC(F)(F)F)cc34)CC2)ccc2c1cc(C#N)n2C[C@H](C)N1CCC(S(C)(=O)=O)CC1
< 0.05 µM

Form entry - test system: Menin MLL 4-43 (Homo sapiens, UniProt O00255); read-out: IC50; compound: CNS(=O)(=O)N1CCN([C@@H](C)Cn2c(C#N)cc3c(C)c(CN4CCC(Nc5nc(OC)nc6sc(CC(F)(F)F)cc56)CC4)ccc32)CC1
< 0.05 µM

Entry Cc1c(CN2CCC(Nc3ncnc4sc(CC(F)(F)F)cc34)CC2)ccc2c1cc(C#N)n2CCN1CCC2(CCN(S(C)(=O)=O)C2)C1 (stereo not shown) , system Menin MLL 4-43 (Homo sapiens, UniProt O00255): what IC50 was measured?
0.02 to 1 µM

Form entry - test system: Menin MLL 4-43 (Homo sapiens, UniProt O00255); read-out: IC50; compound: CNc1nc(NC2CCN(Cc3ccc4c(cc(C#N)n4C[C@H](C)N4CCC(C)(C#N)CC4)c3C)CC2)c2cc(CC(F)(F)F)sc2n1
0.05 to 0.25 µM

Menin MLL 4-43 (Homo sapiens, UniProt O00255) / IC50 / Cc1c(CN2CCC(Nc3ncnc4sc(CC(F)(F)F)cc34)CC2)ccc2c1cc(C#N)n2C[C@H](C)N1CCN(P(C)(C)=O)CC1 : value?
0.05 to 0.25 µM

What value of IC50 on Menin MLL 4-43 (Homo sapiens, UniProt O00255) does Cc1c(CN2CCC(Nc3ncnc4sc(CC(F)(F)F)cc34)CC2)ccc2c1cc(C#N)n2CC(C)N1C2CCC1CN(S(C)(=O)=O)C2 (stereo not shown) have?
0.05 to 0.25 µM

API: value(readout=IC50, system=Menin MLL 4-43 (Homo sapiens, UniProt O00255)) for record CNc1nc(NC2CCN(Cc3ccc4c(cc(C#N)n4CCN4CCN(C)C(=O)C4)c3C)CC2)c2cc(CC(F)(F)F)sc2n1
< 0.05 µM

# query: IC50 | item C#CCOc1cc(CCn2c(C#N)cc3c(C)c(CN4CCC(Nc5ncnc6sc(CC(F)(F)F)cc56)CC4)ccc32)ccc1NC(=O)C=C | system: Menin MLL 4-43 (Homo sapiens, UniProt O00255)
0.02 to 1 µM

Form: Entry = CNc1nc(NC2CCN(Cc3ccc4c(cc(C#N)n4C[C@H](C)N4CCC(S(=O)(=O)NC)CC4)c3C)CC2)c2cc(CC(F)(F)F)sc2n1 | System = Menin MLL 4-43 (Homo sapiens, UniProt O00255) | IC50 = ____
0.05 to 0.25 µM

For Menin MLL 4-43 (Homo sapiens, UniProt O00255), provide IC50 of CCNc1nc(NC2CCN(Cc3ccc4c(cc(C#N)n4C[C@H](C)N4CCN(S(C)(=O)=O)CC4)c3C)CC2)c2cc(CC(F)(F)F)sc2n1 please.
0.05 to 0.25 µM

What reported IC50 corresponds to Cc1c(CN2CCC(Nc3ncnc4sc(CC(F)(F)F)cc34)CC2)ccc2c1cc(C#N)n2C[C@H](C)N1CCN(C(C)C(N)=O)CC1 (stereo partly shown) on Menin MLL 4-43 (Homo sapiens, UniProt O00255)?
0.05 to 0.25 µM

Form: Entry = CC(=O)NC1CCN(CCn2c(C#N)cc3c(C)c(CN4CCC(Nc5ncnc6sc(CC(F)(F)F)cc56)CC4)ccc32)CC1 | System = Menin MLL 4-43 (Homo sapiens, UniProt O00255) | IC50 = ____
0.02 to 1 µM

Quick check: IC50 on Menin MLL 4-43 (Homo sapiens, UniProt O00255), item CCc1nc(NC2CCN(Cc3ccc4c(cc(C#N)n4C[C@H](C)N4CCN(S(C)(=O)=O)CC4)c3C)CC2)c2cc(CC(F)(F)F)sc2n1 ?
0.05 to 0.25 µM

Reported IC50 for Menin MLL 4-43 (Homo sapiens, UniProt O00255), given Cc1c(CN2CCC(Nc3ncnc4sc(CC(F)(F)F)cc34)CC2)ccc2c1cc(C#N)n2C[C@H](C)N1CCN(S(C)(=O)=O)[C@H](C)C1 ?
0.05 to 0.25 µM

###

molecular target: Menin MLL 4-43 (Homo sapiens, UniProt O00255); assay: Fluorescence polarization (FP) competition assay of the menin-MLL interaction; format: binding; conditions: fluorescence polarization assay; read-out: Menin MLL 4-43 IC50
Assignment: determine reported IC50 for the given compounds.

Menin MLL 4-43 (Homo sapiens, UniProt O00255) / IC50 / Cc1nc(NC2CCN(Cc3ccc4c(cc(C#N)n4C[C@H](C)N4CCN(S(C)(=O)=O)CC4)c3C)CC2)c2cc(CC(F)(F)F)sc2n1 : value?
< 50 nM

Could you share what IC50 was measured for CNS(=O)(=O)N1CCN([C@@H](C)Cn2c(C#N)cc3c(C)c(CN4CCC(Nc5nc(C)nc6sc(CC(F)(F)F)cc56)CC4)ccc32)CC1 , tested on Menin MLL 4-43 (Homo sapiens, UniProt O00255)?
< 50 nM

Kindly state the measured IC50 obtained for CC(=O)N1CCN(C(C)Cn2c(C#N)cc3c(C)c(CN4CCC(Nc5ncnc6sc(CC(F)(F)F)cc56)CC4)ccc32)CC1 (stereo not drawn) with Menin MLL 4-43 (Homo sapiens, UniProt O00255).
50 to 250 nM
